Target of assay: Retinoic acid receptor alpha (Homo sapiens) (UniProt P10276)
Sequence (whole entry): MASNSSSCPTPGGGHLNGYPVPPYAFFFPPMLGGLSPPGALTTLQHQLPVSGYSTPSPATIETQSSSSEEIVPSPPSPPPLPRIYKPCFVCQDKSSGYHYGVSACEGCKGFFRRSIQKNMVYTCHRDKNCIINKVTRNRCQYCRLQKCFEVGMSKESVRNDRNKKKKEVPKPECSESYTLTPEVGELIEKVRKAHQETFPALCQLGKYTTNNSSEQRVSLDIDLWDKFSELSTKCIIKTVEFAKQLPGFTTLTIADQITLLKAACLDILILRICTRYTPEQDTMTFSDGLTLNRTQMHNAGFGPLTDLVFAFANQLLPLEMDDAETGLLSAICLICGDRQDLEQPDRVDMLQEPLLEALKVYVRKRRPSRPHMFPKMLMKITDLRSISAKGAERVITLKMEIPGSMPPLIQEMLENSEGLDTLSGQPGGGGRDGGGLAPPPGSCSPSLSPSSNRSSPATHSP
Method: Relative inhibition of TTNPB activity vs background activity (100% inhibition) against RAR alpha
Type: functional
Stated conditions: concentration not given here
Metric name: inhibition (%)

Cc1ccc(C2=CC(C)(C)Sc3cc4ccc(-c5ccc(C(=O)O)cc5)cc4cc32)cc1; 97
Cc1ccc(C2=CC(C)(C)Oc3cc4ccc(-c5ccc(C(=O)O)cc5)cc4cc32)s1; 97
Cc1ccc(C2=CCC(C)(C)c3cc4ccc(-c5ccc(C(=O)O)cc5)cc4cc32)cc1; 97
Cc1ccc(C2=CCC(C)(C)c3cc4ccc(-c5ccc(C(=O)O)cc5)cc4cc32)s1; 95
Cc1ccc(C2=CC(C)(C)Oc3cc4ccc(-c5ccc(C(=O)O)cc5)cc4cc32)cc1; 97

* * *

Sequence of the target: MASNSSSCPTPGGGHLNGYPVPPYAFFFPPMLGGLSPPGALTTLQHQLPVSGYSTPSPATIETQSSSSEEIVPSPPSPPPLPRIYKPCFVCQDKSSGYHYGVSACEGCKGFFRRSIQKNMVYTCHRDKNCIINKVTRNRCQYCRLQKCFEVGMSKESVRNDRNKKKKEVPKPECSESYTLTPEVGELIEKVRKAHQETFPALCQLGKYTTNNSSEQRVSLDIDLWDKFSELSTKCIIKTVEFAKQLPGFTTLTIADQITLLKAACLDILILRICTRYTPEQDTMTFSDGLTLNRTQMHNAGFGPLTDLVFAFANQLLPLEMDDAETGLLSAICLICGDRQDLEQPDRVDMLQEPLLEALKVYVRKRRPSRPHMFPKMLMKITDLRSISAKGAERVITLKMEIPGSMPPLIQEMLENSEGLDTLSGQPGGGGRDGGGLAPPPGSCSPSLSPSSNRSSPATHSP
Metric name: Kd (nM)

Some entries whose results are on file:
Cc1ccc(C2=CC(C)(C)Oc3cc4ccc(-c5ccc(C(=O)O)cc5)cc4cc32)cc1; 14
Cc1ccc(C2=CCC(C)(C)c3cc4ccc(-c5ccc(C(=O)O)cc5)cc4cc32)cc1; 13

1 = Cc1ccc(C2=CC(C)(C)Sc3cc4ccc(-c5ccc(C(=O)O)cc5)cc4cc32)s1
2 = Cc1ccc(C2=CC(C)(C)Sc3cc4ccc(-c5ccc(C(=O)O)cc5)cc4cc32)cc1
[Q] Of the two listed items, which has the higher Kd? First: 1 Second: 2 Choose, then provide that item's label.
[A] 1

* * *

Target of assay: Retinoic acid receptor beta (Homo sapiens) (UniProt P10826)
Sequence (whole entry): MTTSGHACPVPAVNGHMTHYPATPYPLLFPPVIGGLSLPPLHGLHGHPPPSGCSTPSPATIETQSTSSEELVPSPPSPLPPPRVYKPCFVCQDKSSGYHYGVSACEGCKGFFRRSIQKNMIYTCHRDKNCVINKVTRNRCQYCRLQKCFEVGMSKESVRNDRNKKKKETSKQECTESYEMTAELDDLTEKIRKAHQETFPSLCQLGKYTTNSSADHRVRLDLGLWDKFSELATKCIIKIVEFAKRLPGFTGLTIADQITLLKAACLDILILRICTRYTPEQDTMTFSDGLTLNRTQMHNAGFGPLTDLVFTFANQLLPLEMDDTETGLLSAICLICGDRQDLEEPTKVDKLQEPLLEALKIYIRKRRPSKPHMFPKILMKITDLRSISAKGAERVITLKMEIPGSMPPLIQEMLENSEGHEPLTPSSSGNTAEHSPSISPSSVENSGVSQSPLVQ
Method: Relative inhibition of TTNPB activity vs background activity (100% inhibition) against RAR beta
Assay type: functional
Stated conditions: concentration not given here
Metric name: inhibition (%)

Cc1ccc(C2=CC(C)(C)Oc3cc4ccc(-c5ccc(C(=O)O)cc5)cc4cc32)cc1; 98
Cc1ccc(C2=CCC(C)(C)c3cc4ccc(-c5ccc(C(=O)O)cc5)cc4cc32)cc1; 97
Cc1ccc(C2=CCC(C)(C)c3cc4ccc(-c5ccc(C(=O)O)cc5)cc4cc32)s1; 83
Cc1ccc(C2=CC(C)(C)Sc3cc4ccc(-c5ccc(C(=O)O)cc5)cc4cc32)cc1; 98
Cc1ccc(C2=CC(C)(C)Oc3cc4ccc(-c5ccc(C(=O)O)cc5)cc4cc32)s1; 98

* * *

Target of assay: Retinoic acid receptor gamma (Homo sapiens)
Sequence (whole entry): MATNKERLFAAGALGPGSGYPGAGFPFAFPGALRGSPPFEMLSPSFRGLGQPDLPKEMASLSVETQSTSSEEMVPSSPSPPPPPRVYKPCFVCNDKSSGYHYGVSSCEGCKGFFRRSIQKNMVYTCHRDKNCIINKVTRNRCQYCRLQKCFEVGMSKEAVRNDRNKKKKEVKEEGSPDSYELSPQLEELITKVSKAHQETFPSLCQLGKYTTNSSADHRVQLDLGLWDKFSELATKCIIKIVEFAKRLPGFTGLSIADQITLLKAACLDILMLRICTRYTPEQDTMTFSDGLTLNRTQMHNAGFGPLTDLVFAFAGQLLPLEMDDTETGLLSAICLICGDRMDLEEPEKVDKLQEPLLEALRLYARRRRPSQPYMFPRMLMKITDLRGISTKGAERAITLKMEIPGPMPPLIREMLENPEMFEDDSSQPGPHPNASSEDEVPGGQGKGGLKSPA
Method: Relative inhibition of TTNPB activity vs background activity(100% inhibition) against RAR gamma
Format: functional
Stated conditions: concentration not given here
Metric name: inhibition (%)

Cc1ccc(C2=CCC(C)(C)c3cc4ccc(-c5ccc(C(=O)O)cc5)cc4cc32)s1; 96
Cc1ccc(C2=CC(C)(C)Oc3cc4ccc(-c5ccc(C(=O)O)cc5)cc4cc32)cc1; 98
Cc1ccc(C2=CC(C)(C)Sc3cc4ccc(-c5ccc(C(=O)O)cc5)cc4cc32)cc1; 98
Cc1ccc(C2=CCC(C)(C)c3cc4ccc(-c5ccc(C(=O)O)cc5)cc4cc32)cc1; 98
Cc1ccc(C2=CC(C)(C)Oc3cc4ccc(-c5ccc(C(=O)O)cc5)cc4cc32)s1; 97
